Assay: soluble on expression in E. coli; label from the status in PepcDB or PDB records

{"columns": ["CHAIN", "soluble on expression in E. coli"],
 "data": [
  ["DAMNVMPVLAEIRERKAAHRAGMPSHVINFTLLPMNAVDMAHLQATLGNGPIQLHSRGYGSCRVLATATRDVWSVQFLNAMDTMILDTLEIGDVPAAACAADEDFSDSAERLGEIIEAYFE", "not soluble"],
  ["MTARYIAIDWGSTNLRAWLYQGDKCLESRQSEAGVTRLNGKSPDAVLAEVTTHWRDSATPVVMAGMIGSNVGWQNAPYLPVPALFSAIGEQLTAVGDNIWIIPGLCVSREDNHNVMRGEETQLLGACELSPSSVYVMPGTHCKWVQTDTQQIHDFRTVMTGELHHLLLRHSLVGAGLPEQEVSGDAYAAGLERGLNSPAVLPSLFEVRASHVLGHLAREQVSDFLSGLLIGAEVASMSESFAAQQAITLVAGPALISRYQQAFSAIGRDVSTVDGDMAFQAGIRSIAHAVAN", "not soluble"],
  ["MGSDKIHHHHHHMEQKICVIGFSGGQDSTTLAVWAKKRFKKVCLVGFDYAQKHSVELECAQKIASLLQLPYEIIPLDFLENITRSALFKNSNDLIGHSHAQNKDLPNSFVPNRNAIFITLLHSYAQKLGASNIALGVSQADFSGYPDCKEDFIKSIEHALNLGSNTAIKILTPLMFLNKAQEFQMAKDLGVLDLVIKETHTCYQGERKILHAYGYGCDKCPACQLRKKGFEEFQANKK", "not soluble"]
]}

Origin of the recorded values: the DeepSol protein solubility set
